tested on: SK-MEL-2 melanoma; experiment: NCI-60 one-dose screen, 48 h (100 = growth as untreated, 0 = no growth, -100 = all killed); settings: 10 µM unless noted
Compounds without any hit were thinned out: in the full panel of roughly 83,000, 20% have a hit. Activity calls are given as the source filed them. Rule for the calls: active = growth percent below 10; inactive = the rest.
// reported growth for each item listed
parameter.measured: growth

* CCCCCCCCCCCCCCCCCC1OC[C@@H](COC(=O)O[C@@H](C(=O)O[C@H]2C[C@@]3(O)[C@@H](OC(=O)c4ccccc4)[C@@H]4[C@]5(OC(C)=O)CO[C@@H]5C[C@H](O)[C@@]4(C)C(=O)[C@H](OC(C)=O)C(=C2C)C3(C)C)[C@@H](NC(=O)c2ccccc2)c2ccccc2)O1 (some centres undefined) | 82.9% (inactive)
* O=C(CC1(O)C(=O)Nc2ccccc21)c1ccc(C(=O)NCC2CCC3(CC2)OOC2(CCCCC2)OO3)cc1 (centres undefined) | 70.7% (inactive)
* CC(=O)OC1CCC2(C)C(CCC3C2CC(=O)C2(C)C3CC(Sc3ccc(N(CCCl)CCCl)cc3)C2C(C)=O)C1 (centres undefined) | 93.3% (inactive)
* CC[C@H](C)[C@H](NC(=O)[C@H]1CCCCN1C)C(=O)N(C)[C@H](C[C@@H](O)c1nc(C(=O)N[C@@H](Cc2ccccc2)C[C@H](C)C(=O)O)cs1)C(C)C | 41.3% (inactive)
* CC(=O)O[C@H](C[C@H](C(C)C)N(C)C(=O)[C@@H](NC(=O)[C@H]1CCCN1C)C(C)C)c1nc(C(=O)N[C@@H](Cc2ccccc2)C[C@H](C)C(=O)O)c(C)s1 | 36.5% (inactive)
* O=NN1CCCc2cccc(O)c21 | 56.1% (inactive)
* C=CCn1cc(C=C2C(=O)N(C)C(=O)N(C)C2=O)c2ccccc21 | 102% (inactive)
* O=C(CN1CCN(C(=O)c2ccco2)CC1)Nc1ccc(Cl)cc1C(=O)c1ccccc1Cl | 46.6% (inactive)
* COc1cc(/C=N/C2=C(C#N)C(c3ccco3)c3c(c4cc(C)ccc4oc3=O)O2)cc(OC)c1OC (centres undefined) | 94.1% (inactive)
* CC(=O)ONc1ccc([N+](=O)[O-])c(C(F)(F)F)c1 | 102% (inactive)
* COC(=O)N[C@H]1CCc2c(Br)c(OC)c(OC)c(OC)c2-c2ccc(SC)c(=O)cc21 | 29.4% (inactive)
* Cc1c2cc(Cl)c3ccccc3c2c[n+]2ccccc12 | -16.6% (active)
* Oc1ccc2c3c1OC1[C@@H](O)CC[C@@]4(O)[C@@H](C2)N(CC2CCC2)CC[C@]314 (some centres undefined) | 118% (inactive)
* COc1ccc(C2=CC(c3ccc(OC)c(OC)c3)c3c(c4ccccc4oc3=O)O2)cc1OC (centres undefined) | 8.03% (active)
* CC(C)OC(=O)[C@H](C)NP(=O)(Oc1ccccc1)C1CCCN(O)C1=O (some centres undefined) | 94.1% (inactive)
* C=C(C)[C@@]12OC3(/C=C/C=C/CCCCC)O[C@@H]1[C@@H]1[C@@H]4O[C@]4(CO)[C@@H](O)[C@]4(O)C(=O)C(C)=C[C@H]4[C@@]1(O3)[C@H](C)[C@H]2OC(=O)c1ccccc1 | 80.4% (inactive)
* CC(=O)[O][Hg][c]1c(N)c(C)cc(C)c1F | 11.6% (inactive)
* CC(=O)O[C@H]1C(=O)[C@@]2(C)[C@H]([C@H](OC(=O)c3ccccc3)[C@]3(O)C[C@H](OC(=O)[C@H](OC(=O)OCC4COC(C)(C)O4)[C@@H](NC(=O)c4ccccc4)c4ccccc4)C(C)=C1C3(C)C)[C@]1(OC(C)=O)CO[C@@H]1C[C@@H]2O (some centres undefined) | 54.2% (inactive)
* CCCC(C)C1(CC)C(=O)NC(=O)N(C)C1=O (centres undefined) | 85.4% (inactive)
* Cc1ccc(Nc2nc3c(s2)C2=CC[C@@H]4[C@H](CC[C@]5(C)C(=O)CC[C@@H]45)[C@@]2(C)CC3)cc1 | 46.3% (inactive)
* Nc1nnnc2nc[nH]c12 | -16.8% (active)
* COC(=O)CCC1=C(C)c2cc3[n-]c(cc4nc(cc5[n-]c(cc1n2)c(CCC(=O)OC)c5C)C=C4C)cc3C.[Cd+2] | 32.4% (inactive)
* CCOP(=O)(NC[C@H]1O[C@](O)(CO)[C@@H](O)[C@@H]1O)OCC | 98.4% (inactive)
* CN(CCCCN(C)CCOS(C)(=O)=O)CCOS(C)(=O)=O | 102% (inactive)
* COc1cc2c(cc1OCCCCn1c(-c3cccs3)nc3ccccc31)N=C[C@@H]1CCCN1C2=O | -52.4% (active)
* O=C1C(Cl)=C(N2CCOCC2)C(=O)c2ccccc21 | 119% (inactive)
* CCOC(=O)C(Cc1ccc(N(CCCl)CCCl)cc1)NC(=O)C(CC(C)C)NC(C)=O (centres undefined) | -2.13% (active)
* C[S+]1C=Cc2ccccc2C1c1ccc(Cl)cc1 (centres undefined) | 92.7% (inactive)
* CCn1c2ccccc2c2cc(C(=O)c3cccc4c3CCCN4)ccc21 | 99.5% (inactive)
* CC12CC=CCC1CCC1C2CCC2(C)C(c3ccc(=O)oc3)CCC12O (centres undefined) | -33.6% (active)
* Cn1cc(-c2csc(-c3cn(CCCCN4CCCCC4)c4ccccc34)n2)c2cccnc21 | 37.9% (inactive)
* CC(C)(N)Cc1ccccc1 | 108% (inactive)
* Nc1ccc(-c2nc3cc(F)ccc3[se]2)cc1F | 97.7% (inactive)
* CC[C@]12C=CCN3CC[C@@]4(c5ccc(OC)cc5N(C)[C@H]4[C@@](O)(C(=O)OC)[C@@H]1OC(=O)CCCC[P+](c1ccccc1)(c1ccccc1)c1ccccc1)[C@@H]32 | -41.6% (active)

* * *

tested on: UACC-257 melanoma; assay: NCI-60 one-dose screen, 48 h (100 = growth as untreated, 0 = no growth, -100 = all killed); conditions: 10 µM unless noted
The panel holds about 83,000 compounds, 20% with a hit somewhere; the sample as a whole holds those more often.
parameter.measured: growth (%)

• COc1ccc(/C(C)=C(\c2ccc(OCCN3CCOCC3)cc2)c2ccc(OC(=O)Cc3ccccc3)cc2)cc1 = 109
• COC(=O)[C@H](Cc1ccccc1)NC(=O)c1csc([C@@H](C[C@H](C(C)C)N(C)C(=O)[C@@H](NC(=O)[C@H]2CCCCN2C)C2CC2)OC(C)=O)n1 = 54.2
• CCNc1nc(Cl)nc(NCC)n1 = 89
• COc1ccc(/C=C/c2cc(OC)c(OC)c(OC)c2)cc1NC(=O)/C=C/c1ccc(F)cc1 = 59.3

* * *

System: HT29 colon
Assay: NCI-60 one-dose screen, 48 h (100 = growth as untreated, 0 = no growth, -100 = all killed)
Conditions: 10 µM unless noted
Method: Growth inhibition of the HT29 human tumor cell line is measured as a screen for anti-cancer activity. Cells are grown in 96 well plates and exposed to the test compound for 48 hours. Compounds are tested at a single concentration, which is 10^-5 M for most compounds. The reported endpoint is percent growth (GI% or GIPRCNT), where numbers from 0 - 100% represent growth inhibition, and numbers from -100% - 0 represent cell death. For example, a value of 40 represents 60% growth inhibition. […]
Compounds without any hit were thinned out: in the full panel of roughly 83,000, 20% have a hit.
molecules and their reported growth
parameter.measured: growth (%)

* COC(=O)[C@@H](C)C[C@H](Cc1ccccc1)NC(=O)c1nc([C@@H](C[C@H](C(C)C)N(C)C(=O)[C@@H](NC(=O)[C@H]2CCCCN2C)C(C)C)OC(C)=O)sc1C(C)C | 1.52
* O=C(Nc1ccc(Cl)cc1)Nc1nccs1 | 10.7
* C=CC[n+]1ccc(-c2cc[n+](CC=C)cc2)cc1 | 29.1
* COc1cc(NCCCN=C(N)N)c2ncccc2c1 | 83.9
* Fc1ccc2c(c1)c(-c1nc(-c3c[nH]c4ncccc34)cs1)cn2CCN1CCOCC1 | 47.7
* COc1cc(C=Nc2cc(Cl)cc(Cl)c2)ccc1N(CCCl)CCCl | 81.5

* * *

tested on: 786-0 renal; experiment: NCI-60 one-dose screen, 48 h (100 = growth as untreated, 0 = no growth, -100 = all killed); settings: 10 µM unless noted
The panel holds about 83,000 compounds, 20% with a hit somewhere; the sample as a whole holds those more often.
Label key: Condition met means growth under 30%; Condition not met means growth of 30% or more.

* Clc1ccc(CO/N=C(\Cn2ccnc2)c2ccc(Cl)cc2Cl)c(Cl)c1 | Condition met
* O=C1C2CCC1C(N1CCCC1)CC2 (stereo not given) | Condition not met
* COc1cc2c(cc1OCc1ccccc1)C(CC(C)C)=[N+](C)CC2 | Condition not met
* COc1cc(NCCCN=C(N)N)c2ncccc2c1 | Condition not met
* CN(C)C1C(=O)C(C(N)=O)=C(O)C2(O)C(=O)C3=C(O)c4c(O)cccc4C(C)(O)C3CC12.[Cl][Sb]([Cl])[Cl] (stereo not given) | Condition met
